# assay_summary: Stability in simulated intestinal fluid
# Type: in vitro ADME
# measurement_conditions: 2 μM, 37° C., pH 7.5, 24 h
Where a SMILES comes first, the peptide text is derived from it. [ ]: non-standard residue; d: D form. ξ: configuration not given here. ξαMeBip(2'-Et,4'-OMe) = CCc1cc(OC)ccc1-c1ccc(CC(C)(N)C(=O)O)cc1; ξαMePhe(2,6-F2) = CC(N)(Cc1c(F)cccc1F)C(=O)O; ξαMe(hhPhe) = CC(N)(CCCc1ccccc1)C(=O)O; ξhhPhe = NC(CCCc1ccccc1)C(=O)O; ξαMeD = CC(N)(CC(=O)O)C(=O)O; ξαMeP = CC1(C(=O)O)CCCN1; ξαMeS = CC(N)(CO)C(=O)O
Assignment: determine reported % degradation in 24 h when incubated with simulated intestinal fluid for the given compounds.
Give bare numbers, in %.

Provide each entry's % degradation in 24 h when incubated with simulated intestinal fluid from the list below.
1. CCc1cc(OC)ccc1-c1ccc(CC(C)(NC(=O)C(C)(CC(=O)O)NC(=O)[C@H](CO)NC(=O)[C@@H](NC(=O)[C@H](Cc2ccccc2)NC(=O)[C@@H](NC(=O)CNC(=O)[C@H](CCC(=O)O)NC(=O)C2(C)CCCN2C(=O)[C@H](Cc2c[nH]cn2)NC(=O)[C@@H](N)C(C)C)[C@@H](C)O)[C@@H](C)O)C(=O)NC(C)(CCCc2ccccc2)C(N)=O)cc1 (some centres unmarked) [compound 188] (H-VH[ξαMeP]EGTFTS[ξαMeD][ξαMeBip(2'-Et,4'-OMe)][ξαMe(hhPhe)]-NH2)
2. CCc1cc(OC)ccc1-c1ccc(CC(C)(NC(=O)[C@H](CC(=O)O)NC(=O)C(C)(CO)NC(=O)[C@@H](NC(=O)C(C)(Cc2c(F)cccc2F)NC(=O)[C@@H](NC(=O)CNC(=O)[C@H](CCC(N)=O)NC(=O)[C@H](C)NC(=O)[C@H](Cc2c[nH]cn2)NC(=O)[C@@H](N)C(C)C)[C@@H](C)O)[C@@H](C)O)C(=O)NC(CCCc2ccccc2)C(N)=O)cc1 (some centres unmarked) [compound 50] (H-VHAQGT[ξαMePhe(2,6-F2)]T[ξαMeS]D[ξαMeBip(2'-Et,4'-OMe)][ξhhPhe]-NH2)

OUT:
1. 00
2. 100
